target: HLA-B*51:01; experiment: IEDB peptide-MHC binding, purified MHC/direct/fluorescence; filed as Kd, often an IC50 or EC50 that approximates it; bounds were set here for any values at or beyond the usual limits of such assays; settings: source organism: Giardia lamblia ATCC 50803
pKd: −log10 of the molar value.
Readout: pKd

Need pKd, item ATAQNRRAL
≤ 4.70

====

target: HLA-A*24:03; experiment: IEDB peptide-MHC binding, purified MHC/direct/fluorescence; filed as Kd, often an IC50 or EC50 that approximates it; bounds were set here for any values at or beyond the usual limits of such assays; details: source organism: Mycobacterium tuberculosis
Readout: Kd (nM)
Give bare numbers, in nM.

Value wanted: Kd (HLA-A*24:03) of entry GWALGYLYF
24.5

====

biological target: HLA-A*69:01; test: IEDB peptide-MHC binding, purified MHC/direct/fluorescence; filed as Kd, often an IC50 or EC50 that approximates it; bounds were set here for any values at or beyond the usual limits of such assays; settings: source organism: Giardia intestinalis
Readout: Kd

Value wanted: Kd (HLA-A*69:01) of entry LEKWNLGII
≥ 20 µM

====

target: HLA-C*14:02; assay: IEDB peptide-MHC binding, purified MHC/direct/fluorescence; filed as Kd, often an IC50 or EC50 that approximates it; bounds were set here for any values at or beyond the usual limits of such assays; settings: source organism: Homo sapiens
Readout: pKd
Numbers only, as −log10 of the molar value.

Need pKd, item SLMASSPTSI
5.95

====

biological target: HLA-A*02:01; assay: IEDB peptide-MHC binding, purified MHC/direct/fluorescence; filed as Kd, often an IC50 or EC50 that approximates it; bounds were set here for any values at or beyond the usual limits of such assays; conditions: source organism: Camelpox virus M-96
pKd: −log10 of the molar value.
Exercise: for every item that follows, state its recorded pKd.

SYVFNFHKY: ≤ 4.70

// below: pKd requested for another sequence
Need pKd, item NTDAFSREY
≤ 4.70

====

target: HLA-B*15:01; assay: IEDB peptide-MHC binding, purified MHC/direct/fluorescence; filed as Kd, often an IC50 or EC50 that approximates it; bounds were set here for any values at or beyond the usual limits of such assays; details: source organism: Influenza A virus (A/Swine/Italy/25823/94(H3N2))
Readout: pKd
Give bare numbers, as −log10 of the molar value.

Need pKd, item SFSFGGFTF
7.43

====

target: HLA-A*03:01; assay: IEDB peptide-MHC binding, purified MHC/competitive/fluorescence; filed as Kd, often an IC50 or EC50 that approximates it; bounds were set here for any values at or beyond the usual limits of such assays; settings: source organism: Entamoeba histolytica HM-1:IMSS
Readout: Kd

Need Kd, item KTRMEDYYL
≥ 20 µM

====

molecular target: HLA-A*24:03; test: IEDB peptide-MHC binding, purified MHC/direct/fluorescence; filed as Kd, often an IC50 or EC50 that approximates it; bounds were set here for any values at or beyond the usual limits of such assays; conditions: source organism: Buffalopox virus
Readout: pKd
One number for each entry, as −log10 of the molar value.

Value wanted: pKd (HLA-A*24:03) of entry RYPGVMYAF
8.70

====

biological target: HLA-A*02:01; assay: IEDB peptide-MHC binding, purified MHC/direct/fluorescence; filed as Kd, often an IC50 or EC50 that approximates it; bounds were set here for any values at or beyond the usual limits of such assays; settings: source organism: Pseudomonas putida
pKd: −log10 of the molar value.
Readout: pKd

Need pKd, item DLSNSMRDF
≤ 4.70

====

biological target: HLA-A*11:01; test: IEDB peptide-MHC binding, purified MHC/competitive/radioactivity; bounds were set here for any values at or beyond the usual limits of such assays; conditions: source organism: Toxoplasma gondii
Readout: pIC50
Give bare numbers, as −log10 of the molar value.

Need pIC50, item AVVSLLRLLK
8.19

====

target: HLA-B*39:01; assay: IEDB peptide-MHC binding, purified MHC/direct/fluorescence; filed as Kd, often an IC50 or EC50 that approximates it; bounds were set here for any values at or beyond the usual limits of such assays; conditions: source organism: Mycobacterium tuberculosis str. Haarlem
pKd: −log10 of the molar value.
Readout: pKd

Need pKd, item WASGVPAAT
≤ 4.70

====

target: HLA-A*02:01; experiment: IEDB peptide-MHC binding, purified MHC/direct/fluorescence; filed as Kd, often an IC50 or EC50 that approximates it; bounds were set here for any values at or beyond the usual limits of such assays; settings: source organism: Giardia intestinalis
Readout: Kd

Value wanted: Kd (HLA-A*02:01) of entry LEKWNLGII
≥ 20 µM

====

Exercise: for every item that follows, state its recorded pIC50.
biological target: HLA-B*14:02; test: IEDB peptide-MHC binding, purified MHC/competitive/fluorescence; bounds were set here for any values at or beyond the usual limits of such assays; conditions: source organism: Homo sapiens
pIC50: −log10 of the molar value.

SLMASSPTSI: ≤ 4.70

// below: pIC50 requested for another sequence
Value wanted: pIC50 (HLA-B*14:02) of entry YPDPVIKV
≤ 4.70

====

biological target: HLA-A*31:01; experiment: IEDB peptide-MHC binding, purified MHC/competitive/radioactivity; filed as Kd, often an IC50 or EC50 that approximates it; bounds were set here for any values at or beyond the usual limits of such assays; settings: source organism: Lassa virus Josiah
Exercise: for every item that follows, state its recorded pKd.
Give bare numbers, as −log10 of the molar value.

RTRDIYISRR: 7.55

// below: pKd requested for another sequence
Need pKd, item KTWMDIEGR
6.92

====

biological target: HLA-A*11:01; assay: IEDB peptide-MHC binding, purified MHC/competitive/fluorescence; bounds were set here for any values at or beyond the usual limits of such assays; conditions: source organism: Zaire ebolavirus
pIC50: −log10 of the molar value.
Given measured pIC50, output satisfied if it is greater than or equal to 5 and not satisfied if not.

Answered examples (4):
YQGDYKLFL: not satisfied
KLSSTNQLR: satisfied
QLQQYAESR: not satisfied
ATTTSPQNH: satisfied

Below: the item to evaluate.
Decide: pIC50 of ILMNFHQKK >= 5?
satisfied

====

target: HLA-A*26:02; assay: IEDB peptide-MHC binding, purified MHC/direct/fluorescence; filed as Kd, often an IC50 or EC50 that approximates it; bounds were set here for any values at or beyond the usual limits of such assays; conditions: source organism: Influenza B virus (B/Beijing/184/93)
Readout: pKd
Numbers only, as −log10 of the molar value.

Need pKd, item LSPGMMMGM
6.50

====

biological target: HLA-B*07:02; test: IEDB peptide-MHC binding, purified MHC/direct/fluorescence; filed as Kd, often an IC50 or EC50 that approximates it; bounds were set here for any values at or beyond the usual limits of such assays; settings: source organism: Aracatuba virus
Readout: Kd

Need Kd, item YKEPNSIIL
≥ 20 µM

====

target: HLA-C*14:02; test: IEDB peptide-MHC binding, purified MHC/direct/fluorescence; filed as Kd, often an IC50 or EC50 that approximates it; bounds were set here for any values at or beyond the usual limits of such assays; settings: source organism: Giardia lamblia ATCC 50803
Readout: pKd
One number for each entry, as −log10 of the molar value.

Need pKd, item ATAQNRRAL
6.56

====

biological target: HLA-B*46:01; test: IEDB peptide-MHC binding, purified MHC/competitive/fluorescence; filed as Kd, often an IC50 or EC50 that approximates it; bounds were set here for any values at or beyond the usual limits of such assays; conditions: source organism: Bacillus anthracis str. A0488
pKd: −log10 of the molar value.
Readout: pKd

Need pKd, item KQGDVFYTA
≤ 4.70

====

molecular target: HLA-B*27:05; assay: IEDB peptide-MHC binding, purified MHC/direct/fluorescence; filed as Kd, often an IC50 or EC50 that approximates it; bounds were set here for any values at or beyond the usual limits of such assays; settings: source organism: SARS-CoV1
Readout: pKd
Answers are plain numbers, as −log10 of the molar value.

Need pKd, item VQQESSFVM
5.32

====

Exercise: for every item that follows, state its recorded pKd.
molecular target: HLA-A*11:01; assay: IEDB peptide-MHC binding, purified MHC/competitive/radioactivity; filed as Kd, often an IC50 or EC50 that approximates it; bounds were set here for any values at or beyond the usual limits of such assays; conditions: source organism: Dengue virus 1 Brazil/97-11/1997
Give bare numbers, as −log10 of the molar value.

GSQLAKRFSK: 6.97
TLFVWYFWQK: 7.26

Field: pKd. Fill in for each record below.
1. VSTGSQLAK
2. KVTEVKGYTK

6.48
6.67

====

molecular target: HLA-B*83:01; assay: IEDB peptide-MHC binding, purified MHC/competitive/fluorescence; filed as Kd, often an IC50 or EC50 that approximates it; bounds were set here for any values at or beyond the usual limits of such assays; details: source organism: Mycobacterium tuberculosis variant bovis BCG str. Pasteur 1173P2
Readout: Kd

Need Kd, item MTMITPPTF
≥ 5 µM
